Measured selectivity ratio values are reported for all entries that follow.
METHOD_SUMMARY: Selectivity index, ratio of TC50 for human NCI-H460 cells infected with HCoV-OC43 to EC50 for HCoV-OC43 infected in human NCI-H460 cells
Type: toxicity, cell-based
CONDITION_DETAILS: read-out: Selectivity Index
VALUE_TYPE: selectivity ratio

> print(dat)
                                smiles.repr  experimental.value
1  COc1ccc2ncnc(Oc3cc(C(F)(F)F)cc(C(F)(F)F)c3)c2c1                 240
2  COc1cc2c(Nc3cc(C(F)(F)F)cc(C(F)(F)F)c3)ncnc2cn1                24.8
3  COc1ccc2ncnc(Nc3cc(Cl)cc(C(F)(F)F)c3)c2c1                90.4
4  FC(F)(F)c1cc(Nc2ncnc3ccc(Br)cc23)cc(C(F)(F)F)c1                 7.1
5  COc1ccc2ncnc(NNC(=O)c3cc(C(F)(F)F)cc(C(F)(F)F)c3)c2c1                 289
